# Tested on: OVCAR-4
# assay.comment: NCI tumour cell line growth inhibition, 48 h
Calls of active or inactive are those of the source. No stated cut-off is given here; in the data, active = GI50 up to about 1.1 µM and inactive = higher. Square brackets hold non-standard residues; d marks the D form. Peptide text beside a SMILES is read from it. 2Nal = N[CH](Cc1ccc2ccccc2c1)C(=O)O
Outcomes: active, inactive

[[record]]
compound = "O=C1NC(=O)C(CC(C(=O)C(=O)Nc2ccccc2Cl)C(=O)c2ccc3ccccc3c2)C(=O)N1 (stereo not drawn)"
class_label = "inactive"

[[record]]
compound = "CC1=CC[C@@]2(C)[C@@H]([C@@H]1C)[C@H]1CC[C@@H]3[C@@]4(C)CC[C@H](O)C(C)(C)[C@@H]4CC[C@@]3(C)[C@]1(C)C[C@@H]2O"
class_label = "inactive"

[[record]]
compound = "CN(C)CCCCCNc1c2ccccc2nc2cccc([N+](=O)[O-])c12"
class_label = "active"

[[record]]
compound = "CC1=NN=C(N)N/C1=C/C(Sc1ccc(Cl)cc1)c1cccs1 (stereo not drawn)"
class_label = "inactive"

[[record]]
compound = "CC(=O)OCC1OC(N2C(=O)C(=O)c3ccccc32)C(OC(C)=O)C(OC(C)=O)C1OC(C)=O (stereo not drawn)"
class_label = "inactive"

[[record]]
compound = "CCOC12OC3=C(CC1CC1=C(CCC1=O)O2)C(=O)CC3 (stereo not drawn)"
class_label = "inactive"

[[record]]
compound = "CCOC(=O)/C(C#N)=C1/C(O)=C(C(=O)OC)C(C(=O)OC)=C1C(=O)OC.c1ccncc1"
class_label = "inactive"

[[record]]
compound = "Cn1c(C(C#N)c2cc(Cl)ncn2)nc2ccccc21 (stereo not drawn)"
class_label = "inactive"

[[record]]
compound = "O=C(/C=C\\Nc1ccccc1O)C(Cl)(Cl)Cl"
class_label = "inactive"

[[record]]
compound = "CC(C)C(NC(=O)C(CCCCN)NC(=O)C(Cc1c[nH]c2ccccc12)NC(=O)C(Cc1ccc(O)cc1)NC(=O)C(CS)NC(=O)C(N)Cc1ccc2ccccc2c1)C(=O)NC(CS)C(=O)NC(C(N)=O)C(C)O (stereo not drawn) (H-[2Nal]CYWKVCT-NH2; configuration not given here)"
class_label = "inactive"

[[record]]
compound = "C=CC(O)(CBr)CCC(Br)C(=C)C (stereo not drawn)"
class_label = "inactive"

[[record]]
compound = "COc1ccc(C(C2=C(O)CC(C)OC2=O)C2=C(O)CC(C)OC2=O)cc1 (stereo not drawn)"
class_label = "inactive"

[[record]]
compound = "O=C1C(Br)=CC2(C=C1Br)CCNC1=C2C(=O)c2cccnc2C1=O"
class_label = "inactive"

[[record]]
compound = "COc1cc2c(cc1OC)[C@@H]([C@H](O)c1ccccc1)NCC2"
class_label = "inactive"

[[record]]
compound = "Cc1ccc(-c2c3c(n(C4OC(CO)C(O)C(O)C4O)c(=S)c2C#N)CC(C)(C)CC3=O)cc1 (stereo not drawn)"
class_label = "inactive"

[[record]]
compound = "COc1ccc(C2CC3(c4ccccc4)ON=C(c4ccccc4)N3c3ccccc3S2)cc1 (stereo not drawn)"
class_label = "inactive"

[[record]]
compound = "O=C1OC(c2ccccc2)=N/C1=C\\c1cccc(F)c1"
class_label = "inactive"

[[record]]
compound = "OCC(O)C(OC1OC(CO)C(O)C(O)C1O)c1nn(-c2ccc(F)cc2)c2nc3cc(Cl)c(Cl)cc3cc12 (stereo not drawn)"
class_label = "inactive"

